Test: qHTS Assay for Lipid Storage Modulators in Drosophila S3 Cells; further: potency means the concentration at half of the fitted maximal effect
Settings: BODIPY lipid droplet fluorescence, 18-24 h, cells fed with added oleic acid; series mostly up to 46.1 µM
From the text: NIH Molecular Libraries Probe Production Centers Network [MLPCN] NIH Chemical Genomics Center [NCGC] […] Triacsin C (Sigma-Aldrich T-4540), an inhibitor of long-chain fatty acyl CoA synthetase that blocks synthesis of triglycerides, was used as a positive control for lipid under-storage. […] Fluorescence was detected by excitation of the fluorophores with a 488-nm laser on an Acumen Explorer (TTP Lab Tech). […] Cells were detected using channel 3 (575-640 nm) with 5-um width and 100-um depth filters. […]
Out of some 320,000 compounds screened, about 2,100 (0.66%) were called active. Another 53% or so got no clear call; they are omitted. The full list was thinned out, with actives kept by preference.
assayEndpoint: Potency

>>> print(df.to_string())
                            structuresmiles    observedresult
0  CCc1ccc(NC(=O)C2=CC(c3ccc(OC)cc3)=NS(=O)(=O)N2C)cc1  10.3 µM (active)
1  COc1cc(NC(=O)C2=CC(c3ccc(C)cc3)=NS(=O)(=O)N2C)cc(OC)c1OC  1.46 µM (active)
2  COc1ccc(C2=NS(=O)(=O)N(C)C(C(=O)Nc3ccc(C(C)=O)cc3)=C2)cc1OC          inactive
3  COc1ccc(NC(=O)C2=CC(c3ccc(C)cc3)=NS(=O)(=O)N2C)cc1OC          inactive
4  CC(=O)c1cccc(NC(=O)C2=CC(c3cccs3)=NS(=O)(=O)N2C)c1          inactive

---

This listing pairs molecules with measured cell number change.
assay: qHTS Assay for Lipid Storage Modulators in Drosophila S3 Cells; details: BODIPY lipid droplet fluorescence, 18-24 h, cells fed with added oleic acid; measured here: cell count max response;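 on cell number change: cells counted by Cell Tracker Red CMTPX staining in the red channel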
The campaign covered roughly 320,000 compounds. About 2,100 (0.66%) were called active. Another 53% or so got no clear call; they are omitted. Many of the other results were omitted from the sample, so actives are more common in it than they were.
assayEndpoint: cell number change (%)

                                    molecule  observedresult
 0        N#C/C(=C\c1ccccc1Cl)C(=O)Nc1ccccn1            7.44
 1               S=C1NCCOCCNC(=S)NCCOCCOCCN1              28
 2  CC(C)(C)c1ccc(/C=C(\C#N)C(=O)Nc2ccccn2)cc1            9.55
 3  CCOc1cc2[nH]c(=O)n(CCc3ccc(OC)c(OC)c3)c(=O)c2cc1OCC           0.389
 4  COc1ccc(OC)c(NC(=O)CCCNC(=O)Cn2cnc3sc(C)c(C)c3c2=O)c1            10.8
 5             CCN1CCN(C(=S)c2ccc(Br)cc2)CC1           -1.28
 6  COc1ccc(CNC(=O)CN(Cc2ccc(Cl)cc2)S(C)(=O)=O)cc1            15.2
 7  C=CCN1CC(=O)N2C(C)c3[nH]c4ccccc4c3C[C@H]2C1=O (some centres not stated)            1.11
 8                     S=C1NCCOCCOCCOCCOCCN1            20.5
 9           N#C/C(=C\c1cccs1)C(=O)Nc1ccccn1            9.59
10  COc1ccc(CCNC(=O)CN(Cc2ccc(Cl)cc2)S(C)(=O)=O)cc1OC            5.74
11             O=C(Nc1cnccn1)Nc1cccc(Cl)c1Cl          -0.957

---

assay: qHTS Assay for Lipid Storage Modulators in Drosophila S3 Cells; settings: BODIPY lipid droplet fluorescence, 18-24 h, cells fed with added oleic acid; series mostly up to 46.1 µM
The campaign covered roughly 320,000 compounds. About 2,100 (0.66%) were called active. Roughly 53% stayed inconclusive and do not appear here. Calls come from the whole dose curve; as a rule, active = well fitted inhibition curve with a large enough effect in the signal ratio, with a control signal flat (not every such curve was filed as active); inconclusive = small, poorly fitted or top-dose-only effect, or effect the other way, or a change in a side signal; inactive = flat fitted curve, though single readings scatter; the % refers to the signal ratio. This is one part of a sample in which actives are shown more often than they occur.
Labels: TRUE (active), FALSE (inactive)

>>> print(df.to_string())
                                   compound  labelclass
0  Cc1ccc(NC(=O)C(C)OC(=O)COc2cccc(C(F)(F)F)c2)cc1 (stereo not given)       FALSE
1  CC(=O)NCCC(=O)Nc1ncc(S(=O)(=O)c2ccc([N+](=O)[O-])cc2)s1       FALSE
2  O=S(=O)(NCC(c1ccco1)N1CCN(c2ccccc2F)CC1)c1ccc2c(c1)OCCO2 (stereo not given)        TRUE
3  O=C(CSc1nnc(-c2ccco2)n1-c1ccccc1)N1CCOCC1       FALSE
4  CCN(CC)c1nc(-c2ccc(Cl)cc2)cc(C(F)(F)F)c1C#N       FALSE

---

assay: qHTS Assay for Lipid Storage Modulators in Drosophila S3 Cells; conditions: BODIPY lipid droplet fluorescence, 18-24 h, cells fed with added oleic acid; measured here: cell count max response;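 on cell number change: cells counted by Cell Tracker Red CMTPX staining in the red channel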
About 2,100 (0.66%) of roughly 320,000 compounds were called active. Not shown: some 53% with an inconclusive outcome. The entries come from a sample that favours actives as a whole.
assayEndpoint: cell number change (%)

>>> df
                                    compound       assayendpoint  unitabbrev  observedresult
 0  Cc1cc(NC(=O)CCC(=O)N(CC(=O)NCC2CCCO2)c2ccc(C)c(C)c2)no1 (configuration not stated)  cell number change           %             -10
 1        Cc1ccc(-c2cc(C(=O)NC3CCCC3)no2)cc1  cell number change           %           -1.32
 2  CCc1ccc(C(=O)/C=C/c2ccc([N+](=O)[O-])o2)cc1  cell number change           %           -21.1
 3  COc1cc(-c2nc(CCNC(=O)c3ccco3)cs2)cc(OC)c1OC  cell number change           %           -3.07
 4           Cn1ccsc1=NC(=O)c1cccc(OC(F)F)c1  cell number change           %           -7.04
 5  Cc1cc(C)n2nc(C(=O)OCC(=O)NNC(=O)c3ccc(Cl)cc3)nc2n1  cell number change           %           -14.4
 6  Cc1cc(NC(=O)CCC(=O)N(CC(=O)NCC2CCCO2)c2ccc3c(c2)OCCO3)no1 (configuration not stated)  cell number change           %            10.4
 7  CCOc1ccccc1N(CC(=O)NCC1CCCO1)C(=O)CCC(=O)Nc1cc(C)on1 (configuration not stated)  cell number change           %            6.09
 8  Cc1ccc2cc(CN(Cc3ccco3)C(=S)NCC3CCCO3)c(=O)[nH]c2c1 (configuration not stated)  cell number change           %            3.25
 9     COc1ccc(/C=C2\SC(=Nc3ccccc3)NC2=O)cc1  cell number change           %           -6.61
10  CCCCS(=O)(=O)N1CCC(C(=O)NCC2CCCO2)CC1 (configuration not stated)  cell number change           %            5.96
11  CS(=O)(=O)c1ccc(N2CCOCC2)c(S(C)(=O)=O)c1  cell number change           %            4.86
12         CCn1c(COc2ccccc2C(N)=O)nc2ccccc21  cell number change           %           -13.5
13  COc1ccc2oc(CS(=O)c3ccccc3)c(C(=O)O)c2c1 (configuration not stated)  cell number change           %            13.2
14       Cc1cc(C)c(OCCCCN(C)Cc2ccccc2)c(C)c1  cell number change           %             -22
15        CCOc1cc(C(=O)N=c2sccn2C)ccc1OC(F)F  cell number change           %           -22.3
16  CN1CCN(C(=O)/C=C/c2ccc([N+](=O)[O-])o2)CC1  cell number change           %           -21.6
17  CC(C)=CCN1CCN(Cc2cnc(-c3ccccc3)s2)CC1CCO (configuration not stated)  cell number change           %           -2.03
18  Cc1cc(C)n2nc(C(=O)NNC(=O)c3ccc(Cl)cc3)nc2n1  cell number change           %             -28
19                Oc1ccccc1Oc1ncc(Br)c(Cl)n1  cell number change           %            10.9
20  CCOC(=O)c1cc(=O)c2c([N+](=O)[O-])ccc(OC)c2o1  cell number change           %           -14.1
21  CCc1ccccc1N(CC(=O)NCC1CCCO1)C(=O)CCC(=O)Nc1cc(C)on1 (configuration not stated)  cell number change           %            7.08
22  CS(=O)(=O)N1CCC(C(=O)NCC2CCCO2)CC1 (configuration not stated)  cell number change           %           -2.74
23  O=C(NC1CCN(C(=O)NCc2ccccc2)CC1)c1cccc(F)c1  cell number change           %            11.7
24            O=C(O)c1cccc2c3c([nH]c12)CCCC3  cell number change           %            23.1
25     CCCN1CN(Cc2ccccc2)CC2=C1CC(C)(C)CC2=O  cell number change           %           -2.17
26  O=C(/C=C\c1ccc(-c2cccc([N+](=O)[O-])c2)o1)N1CCOCC1  cell number change           %            1.96
27   Cc1cc(C)n2nc(C(=O)NNC(=O)c3ccccc3)nc2n1  cell number change           %              14
28  O=C(N/N=C/c1ccc([N+](=O)[O-])cc1)c1ccc2nc[nH]c2c1  cell number change           %           -15.6
29             CCN(CC)C(=O)c1ccc(-c2cccs2)s1  cell number change           %            3.13
30  CCOc1ccc(NC(=O)CCS(=O)(=O)c2ccc(C)cc2)cc1  cell number change           %            9.92
31  CC(C)C(OC(=O)CCC(=O)Nc1nccs1)C(=O)NC1CCCCC1 (configuration not stated)  cell number change           %            7.34
32           O=C(Nc1cccc(O)c1)C(=O)Nc1ccccn1  cell number change           %            0.58
33  CCc1nn(C(CC)C(=O)NCc2cccs2)c(=O)c2cc3occc3n12 (configuration not stated)  cell number change           %           -4.96
34  CCOC(=O)C1=C(C)NC(=O)NC1c1ccc(OC(C)C(=O)O)c(OC)c1 (configuration not stated)  cell number change           %           0.405
35   COc1ccc(/C=C2\SC(=Nc3ccccc3OC)NC2=O)cc1  cell number change           %           -11.5
36  CCC(C)NC(=O)c1c(N)n(/N=C/c2ccccn2)c2nc3ccccc3nc12 (configuration not stated)  cell number change           %             8.8
37                      CCOc1ccc(NC(N)=O)cc1  cell number change           %            1.62
38       O=C(NC1CCCCC1)c1cc(-c2ccc(F)cc2)on1  cell number change           %            15.8
39           NNC(=O)c1ccc2[nH]c3c(c2c1)CCCC3  cell number change           %               7
40  CC(=O)c1ccc(NC(=O)c2ccc(CSc3ccccc3)o2)cc1  cell number change           %             3.7
41  CCn1cc(CNC(=O)/C=C/c2ccc([N+](=O)[O-])cc2)cn1  cell number change           %           -8.84
42             CN(CCCCOc1ccc(F)cc1)Cc1ccccc1  cell number change           %            9.09
43         O=C(NCCc1csc(-c2cccnc2)n1)c1ccco1  cell number change           %            14.6
44                CN(CCOc1ccccc1Cl)Cc1ccccc1  cell number change           %            -8.5
45  COc1ccc(-c2nc(CCNC(=O)c3ccc(Br)o3)cs2)cc1  cell number change           %            29.2
46       COc1ccc(-c2cc(C(=O)NC3CCCC3)no2)cc1  cell number change           %            6.09
